tested on: MS2 coat protein; assay: apparent KD of MS2 coat protein; designed switch direction (-1 OFF switch, 1 ON switch): -1; higher = weaker reporter binding; conditions: input ligand: FMN 200 uM
readout: apparent KD of MS2 coat protein
Write the numeric value and follow it with the unit.

Which apparent KD of MS2 coat protein is listed for CCUUAGUCACAGGAUAUGCUCAUCUAAUGAUGAGCAGAAGGGUGAACAUGAGGAUCACCCAUGUUUACCAGGGU [Omei Ex6 E4] (Eterna round: R97, puzzle: Exclusion 6) ?
247 nM

Which apparent KD of MS2 coat protein is listed for AAUGCGGACAAAGGAUAUUGCGGUGACCGGCUCGGCGUACCGAGCCUACAUGAGGAUCACCCAUGUAAGAAGGUUGUCGCUAAA [Mat - Exclusion NG 2 - Mod of JL - D74] (Eterna round: R96, puzzle: Exclusion NG 2) ?
43.1 nM

Which apparent KD of MS2 coat protein is listed for AUCCUGCGAGGAUAUACAUAAUUUUUUUCGUUUUGACUCGAACAUGAGGAUCACCCAUGUAGAAGGUGCUUCAC [JR_Ex2_Sub027] (Eterna round: R97, puzzle: Exclusion 2) ?
122 nM

Which apparent KD of MS2 coat protein is listed for AUCAGUCGAGGAUAUACGAUCGUGCUUCGGCACGUAAGAUCACAUGAGGAUCACCCAUGUAGAAGGCGACUGAU [Mod 8 - Jieux - Exclusion 2] (Eterna round: R97, puzzle: Exclusion 2) ?
463 nM

Which apparent KD of MS2 coat protein is listed for CGAUGCUCGUGCCCACAUGAGGAUCACCCAUGUCGAGUCAGCGAGGAUAUCGGUGGCACAUAGUACGAGAAGGCGCGGACCUGA [Ex NG3 #18] (Eterna round: R96, puzzle: Exclusion NG 3) ?
17.7 nM

====

tested on: MS2 coat protein; experiment: apparent KD of MS2 coat protein; designed switch direction (-1 OFF switch, 1 ON switch): -1; higher = weaker reporter binding; details: input ligand: FMN 200 uM
# cutoff 0.1 µM applies to apparent KD of MS2 coat protein; >= gives satisfied, < gives not satisfied

Hello, I need to know if AGCUGUGGCCGAGGAUAUCACGAACCAUGGAAAACCAUGGAACUCCUACAUGAGGAUCACCCAUGUGAGAAGGCGGUCUCAGCA [Eli eng2 - 020] (Eterna round: R96, puzzle: Exclusion NG 2) has measured apparent KD of MS2 coat protein not below 0.1 µM. Thanks!
satisfied

Hello, I need to know if UAUUAAACAAGCGGAUCCCACAUGAGGAUCACCCAUGUGCUCGUCUUAUAAGGUACUGUGACGAAAGUCACGGUACC [Sensor 3, v1 - 91 v13] (Eterna round: R97, puzzle: Sensor, turn-off variant 1) has measured apparent KD of MS2 coat protein not below 0.1 µM. Thanks!
not satisfied

Hello, I need to know if AAUUUAUGAGGAUAUACAGUGUAAAACAUGAGGAUCACCCAUGUUCUUCAAUUAGUAUAUGUAGAAGGCAUAUGUA [JR_Ex5_Sub096] (Eterna round: R97, puzzle: Exclusion 5) has measured apparent KD of MS2 coat protein not below 0.1 µM. Thanks!
not satisfied

Hello, I need to know if UGUGUGAGACAGGAUAUGCUGGAUGAGAGGCAGGUAGAAGGGUCUACAUGAGGAUCACCCAUGUGGCCGGUUGG [Ex6 #72] (Eterna round: R97, puzzle: Exclusion 6) has measured apparent KD of MS2 coat protein not below 0.1 µM. Thanks!
not satisfied

Hello, I need to know if ACCUCACAUGAGGAUCACCCAUGUCAGGAUAUCUAAUAUAGUAGCGUUCCCGACGCUAAGAGAAGGGACAUUAA [EX1 #32] (Eterna round: R97, puzzle: Exclusion 1) has measured apparent KD of MS2 coat protein not below 0.1 µM. Thanks!
not satisfied

Hello, I need to know if CGAGCUGGAGUGAGGAUAUCGUGUUCGAAAGAACGUGAGAAGGCACAUGAGGAUCACCCAUGUGAUUCAGCUCG [Omei Ex4B A4] (Eterna round: R97, puzzle: Brourd's mod of Exclusion 4) has measured apparent KD of MS2 coat protein not below 0.1 µM. Thanks!
not satisfied

Hello, I need to know if CCAGGGCACAAUUAAACGCCCUAACAUGAGGAUCACCCAUGUCAGGAUAUGUAGGCAAAGACCCUACAGAAGGGACAUGUCCUA [Xegeat] (Eterna round: R96, puzzle: Exclusion NG 3) has measured apparent KD of MS2 coat protein not below 0.1 µM. Thanks!
satisfied

Hello, I need to know if CUCUCACAUGAGGAUCACCCAUGUCAGGAUAUCUCAGUGCAUCCACACGGACGCAUCAAGAGAAGGGACAAAAC [Vinxlusion 2 - Jieux - Exclusion 1] (Eterna round: R97, puzzle: Exclusion 1) has measured apparent KD of MS2 coat protein not below 0.1 µM. Thanks!
not satisfied

Hello, I need to know if UAAUGUAUAUAGGAUAUCUAGCUGGAAACAGCUAGAGAAGGAUGUACAUGAGGAUCACCCAUGUAAAUCAAUAA [Ex6/9-A1] (Eterna round: R97, puzzle: Exclusion 6) has measured apparent KD of MS2 coat protein not below 0.1 µM. Thanks!
not satisfied

Hello, I need to know if ACCAGUGGAGGAUAUACAUGAGGAUCACCCAUGUGUUGAAUAGGUGGAGAACCACAAAGUAGAAGGCCACUGGA [jl-ex3-4.79 jandersonlee automod] (Eterna round: R97, puzzle: Exclusion 3) has measured apparent KD of MS2 coat protein not below 0.1 µM. Thanks!
satisfied

====

test system: K4 kissing-loop RNA reporter; assay: apparent KD of K4 kissing-loop reporter; higher = weaker reporter binding; settings: Eterna round: R107; input ligand: none
I'd appreciate it if you could supply apparent KD of K4 kissing-loop reporter values for the items below.
Enter your answer as a number in nM; do not include the unit.

Could you share what apparent KD of K4 kissing-loop reporter was measured for "GGUAGCAUGGCGGCCGCCACUCUUCAUUAGUGAUGUUAAUGCCGAGUGCGCUAACUCCUACGGGAGAGGACCGGGCCAUGCUACC" , tested on K4 kissing-loop RNA reporter?
25.8

Could you share what apparent KD of K4 kissing-loop reporter was measured for UGCACGGGCUCGGCCGCCACUCCCGCGGGUCGAAAGGUCCGCUACUGAGUGAUGUUCGGUUGGAGGAGGACCGGGAGCCCGUGCA [#2 Exclusion - Tryptophan B Attempt #24 (HarryS)] , tested on K4 kissing-loop RNA reporter?
108

Could you share what apparent KD of K4 kissing-loop reporter was measured for AUUAAUUUCAGAGGAUAUCGUAAUUUUAUUUAAUUUAUUCAUUUGUGCAGUGAUGUUGCUAAUAUUCGAGAAGGCUGAUUUAUAA [whbob_Ex_FMNB__2th223] , tested on K4 kissing-loop RNA reporter?;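 note: bound reporter read as fluorescence of individual clusters on recovered sequencing chips by microscopy, with normalized cluster intensities fitted with a binding model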
70.8

====

tested on: MS2 coat protein; assay: apparent KD of MS2 coat protein; designed switch direction (-1 OFF switch, 1 ON switch): -1; higher = weaker reporter binding; conditions: Eterna round: R95; input ligand: microRNA oligo, concentration not stated
I'd appreciate it if you could supply apparent KD of MS2 coat protein values for the items below.
Enter your answer as a number in nM; do not include the unit.

Which apparent KD of MS2 coat protein is listed for AAUAACAAGUAAGAUCCUAACAUGAGGAUCACCCAUGUGCUCGUCUUAUAAAGUACUAUCACGAAAGUGAUAGUACA [Sensor 3, v1 - 46] (puzzle: Sensor v3, turn-off variant 1) ?
153

Which apparent KD of MS2 coat protein is listed for GAGUGGCAAGGAUAUACAGUGGAGAGGAUGGCAAGAGGUGGACAUGAGGAUCACCCAUGUAGAAGGUGCAGAGA [JR_Exclu2_Sub024] (puzzle: Exclusion 2) ?
150

Which apparent KD of MS2 coat protein is listed for UUUUUCAGGCCAGAUCCUCACAUGAGGAUCACCCAUGUGCUCGUCUGUUUUCGCUCUUUCUUUUUUUUGGUUGUGCU [Level Boss var2-18] (puzzle: Sensor v3, turn-off variant 1) ?
31.2

Which apparent KD of MS2 coat protein is listed for GCAUGGAGACAGGAUAUCCGCGCGAACAAAAUAGGAGAAGGGUCUACAUGAGGAUCACCCAUGUGACGGUAUCC [Aedenqu] (puzzle: Exclusion 6) ?
21.7

Which apparent KD of MS2 coat protein is listed for CAUUACUACAAGCUUGGGAACAUGAGGAUCACCCAUGUUCGUCUUAUUGAUCUAGGUACGCUGACGUACCUAGAUCU [JL-sv1-2.24 Brourd mod] (puzzle: Sensor v3, turn-off variant 1) ?
21.7

Which apparent KD of MS2 coat protein is listed for AAGAAACAUGAGGAUCACCCAUGUGAGGAUAUGUAAAAUAAAAUAAAAUAAAGAAUAAACAGAAGGCACAAAGG [Mat - Mod of Hog D24] (puzzle: Exclusion 1) ?
64.5

Which apparent KD of MS2 coat protein is listed for UAAGAAGGUGUUAGGAUAUGCAGAGCAGGGCUAAGGCAGAAGGGACAUGAGGAUCACCCAUGUGCUACGGGUGC [Enrainbera] (puzzle: Brourd's mod of Exclusion 4) ?
37.2

Which apparent KD of MS2 coat protein is listed for UUUGUCUGUGUGAGGAUAUACUUUUUUUGGUUUUUGUAGAAGGCACAUGAGGAUCACCCAUGUAUUUUGUUGUG [JR_BME4_Sub016] (puzzle: Brourd's mod of Exclusion 4) ?
31.1

Which apparent KD of MS2 coat protein is listed for CAGUACUGAGGAUAUACAUGAGGAUCACCCAUGUGGUCCAGCUAGGAAACUAGCAAAAGUAGAAGGCAGUACUG [salish99_ex3_r3_083] (puzzle: Exclusion 3) ?
71.5

Which apparent KD of MS2 coat protein is listed for AAAAUGUAAGGAUAUAGCCGGAACCCAGGGUUUGGACCCGGCUAGAAGGUACAUGAGGAUCACCCAUGUAAGAA [Excls4-VII] (puzzle: Exclusion 4) ?
17.4

Which apparent KD of MS2 coat protein is listed for UUUUAACAUGAGGAUCACCCAUGUCAGGAUAUGGUAUUUUUUUUUUUUUUUUUUUUUUCCAGAAGGGACAUUUU [My solution] (puzzle: Exclusion 1) ?
11.3

Which apparent KD of MS2 coat protein is listed for GGUGCGUAUGUGAGGAUAUGCUGGUCCUUGGUUCAGCAGAAGGCACAUGAGGAUCACCCAUGUGGUGUCGUACC [salish99_Bmod_Ex4_025] (puzzle: Brourd's mod of Exclusion 4) ?
188

Which apparent KD of MS2 coat protein is listed for ACGUGAUAUCUGUCGGUGGACAUGAGGAUCACCCAUGUGAGCUUUUUGCUCGUCUUACAACCCGGUGACAGACCUUC [Bebitier] (puzzle: Sensor v3, turn-off variant 1) ?
262

Which apparent KD of MS2 coat protein is listed for UACGGGUCAGGAUAUGCGAGGGAGUGGGAAAUAGGAAGGUAGCAGAAGGGACAUGAGGAUCACCCAUGUAAGGA [JR_Exclu4_Sub0100] (puzzle: Exclusion 4) ?
31.2

Which apparent KD of MS2 coat protein is listed for GAUACACAUGAGGAUCACCCAUGUGAGGAUAUGCGUACGUUGUCCGUAGGCGACGUGCGCAGAAGGCGCAAAGG [Mat - Mod of JL D97] (puzzle: Exclusion 1) ?
41.3

Which apparent KD of MS2 coat protein is listed for GCAAGCGACUAGGCUCGUCUUAUAUUGAAAAGAUUGAAAACAUGAGGAUCACCCAUGUAUGUGGGAGAGUUGAAGUG [JR_SV3TOV2_Sub011] (puzzle: Sensor v3, turn-off variant 2) ?
395

Which apparent KD of MS2 coat protein is listed for AGUAACAGAGGAUAUACUGUUUUAUGUGUUUAUUAUUUUAAACAUGAGGAUCACCCAUGUAGAAGGCUGAAUAA [JMF 82] (puzzle: Exclusion 2) ?
40.3

Which apparent KD of MS2 coat protein is listed for AAAUACAAGUAAAGAUCCUACAUGAGGAUCACCCAUGUGCUCGUCUUAUAAAGUACUAUCACGAAAGUGAUAGUACA [Sensor 3, v1 - 20] (puzzle: Sensor v3, turn-off variant 1) ?
13.9

Which apparent KD of MS2 coat protein is listed for AAUACACAUGAGGAUCACCCAUGUCAGGAUAUGCGCAGACAGACAGACAGACAGACGAGCAGAAGGGAUAGGAA [Excls1-IV] (puzzle: Exclusion 1) ?
67.5

Which apparent KD of MS2 coat protein is listed for CUGAGGUAGCGGUCCUAUGACAUGAGGAUCACCCAUGUACCUUGCUUUGAGCAAUUUGCUCGUCUUAUGAUUCUCGG [Mat - Sensor v3 - turn-off var 1 - JL Mod - D46] (puzzle: Sensor v3, turn-off variant 1) ?
468
